This section presents binders with their documented Inhibition rate (%) values.
target_desc: T1, human LAG-3 protein with hFc tag (hLAG-3-hFc protein) (human, UniProt P18627 23-450)
T1 construct: also called immunogen 1; LAG-3 extracellular domain protein; not shown: human IgG Fc fragment (hFc) of the pCpC vector
T1 sequence: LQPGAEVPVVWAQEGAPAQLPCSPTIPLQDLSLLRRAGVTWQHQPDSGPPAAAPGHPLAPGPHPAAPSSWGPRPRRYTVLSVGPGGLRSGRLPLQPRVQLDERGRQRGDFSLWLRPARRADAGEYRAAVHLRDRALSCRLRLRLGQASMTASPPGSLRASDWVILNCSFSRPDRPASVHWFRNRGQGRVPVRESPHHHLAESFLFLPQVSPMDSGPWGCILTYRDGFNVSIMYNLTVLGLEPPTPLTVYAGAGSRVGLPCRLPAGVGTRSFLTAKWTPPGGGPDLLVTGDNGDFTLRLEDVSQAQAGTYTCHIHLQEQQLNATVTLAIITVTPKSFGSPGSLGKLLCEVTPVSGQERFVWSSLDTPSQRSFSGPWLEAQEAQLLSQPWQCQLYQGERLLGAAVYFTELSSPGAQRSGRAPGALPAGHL
assay_method_text: FACS, blocks LAG-3-hFc binding to MHC II on Raji; 7.407 nM

- binder: "105F1E10 (mouse antibody purified from hybridoma) (antibody, V domains shown, also called mAb009-105F1E10) VH: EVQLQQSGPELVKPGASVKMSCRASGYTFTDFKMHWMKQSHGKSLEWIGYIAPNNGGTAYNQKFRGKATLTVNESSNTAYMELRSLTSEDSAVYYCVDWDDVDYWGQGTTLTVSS VL: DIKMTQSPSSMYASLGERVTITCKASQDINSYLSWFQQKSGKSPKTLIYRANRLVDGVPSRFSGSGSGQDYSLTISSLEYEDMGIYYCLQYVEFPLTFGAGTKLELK"
  result_unit: "%"
  Inhibition rate (%): 81
- binder: "405B8H3 (mouse antibody purified from hybridoma) (antibody, V domains shown, also called mAb103-405B8H3; 405B81-13) VH: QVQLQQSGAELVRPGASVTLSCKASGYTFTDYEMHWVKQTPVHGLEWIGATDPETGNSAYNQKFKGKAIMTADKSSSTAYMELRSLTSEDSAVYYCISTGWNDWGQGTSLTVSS VL: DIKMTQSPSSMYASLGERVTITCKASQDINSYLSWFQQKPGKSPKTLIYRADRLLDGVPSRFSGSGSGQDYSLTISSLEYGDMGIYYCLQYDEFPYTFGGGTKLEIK"
  result_unit: "%"
  Inhibition rate (%): 87.3
